assay-notes: Freeze-thaw stability in spiked pooled human plasma
Assay type: physicochemical
conditions-used: validation standard ULOV
measured-endpoint: Freeze-Thaw Accuracy [%] (%)
Record the value in %, omitting the unit from your answer.

Below are worked cases with known answers.
# compound, Freeze-Thaw Accuracy [%] (%)
data = [
    ("Cc1nc(Nc2ncc(C(=O)Nc3c(C)cccc3Cl)s2)cc(N2CCN(CCO)CC2)n1", 102.2),
    ("Cc1ccc(Nc2nccc(N(C)c3ccc4c(C)n(C)nc4c3)n2)cc1S(N)(=O)=O", 100.5),
    ("CCCS(=O)(=O)Nc1ccc(F)c(C(=O)c2c[nH]c3ncc(-c4ccc(Cl)cc4)cc23)c1F", 99.2),
    ("Cc1[nH]c2ccccc2c1CCNCc1ccc(/C=C/C(=O)NO)cc1", 102.3),
    ("CNC(=O)c1ccccc1Sc1ccc2c(/C=C/c3ccccn3)n[nH]c2c1", 104.0),
]

QUERY: # lookup: Freeze-Thaw Accuracy [%] of COc1cc2c(Nc3ccc(Br)cc3F)ncnc2cc1OCC1CCN(C)CC1
RESULT: 94.0

QUERY: Field request: Freeze-Thaw Accuracy [%] | item: NC(=O)c1cccc2cn(-c3ccc([C@@H]4CCCNC4)cc3)nc12
RESULT: 97.1

QUERY: Give its Freeze-Thaw Accuracy [%] value. Item: C[C@@H](Oc1cc(-c2cnn(C3CCNCC3)c2)cnc1N)c1c(Cl)ccc(F)c1Cl
RESULT: 92.4

QUERY: Please report the recorded Freeze-Thaw Accuracy [%] for CN(C)C/C=C/C(=O)Nc1cc2c(Nc3ccc(F)c(Cl)c3)ncnc2cc1O[C@H]1CCOC1 .
RESULT: 95.0

QUERY: I have this compound here, O=C1CN2Cc3c(ccc(Cl)c3Cl)N=C2N1 [Anagrelide] , and I need its recorded Freeze-Thaw Accuracy [%].
RESULT: 99.6

QUERY: # lookup: Freeze-Thaw Accuracy [%] of C[C@]12CC[C@H](O)CC1=CC[C@@H]1[C@@H]2CC[C@]2(C)C(c3cccnc3)=CC[C@@H]12
RESULT: 100.2

QUERY: Freeze-Thaw Accuracy [%] lookup needed for COc1cc(N2CCC(N3CCN(C)CC3)CC2)ccc1Nc1ncc(Cl)c(Nc2ccccc2P(C)(C)=O)n1 , thanks.
RESULT: 97.9

QUERY: What value of Freeze-Thaw Accuracy [%] has been recorded for this entry: COc1cc2ncnc(Nc3ccc(F)c(Cl)c3)c2cc1OCCCN1CCOCC1
RESULT: 97.1

QUERY: Entry Cc1ccc(NC(=O)c2ccc(CN3CCN(C)CC3)cc2)cc1Nc1nccc(-c2cccnc2)n1 has what Freeze-Thaw Accuracy [%]?
RESULT: 96.3

QUERY: Return reported Freeze-Thaw Accuracy [%]; argument: CCN1CCN(Cc2ccc(Nc3ncc(F)c(-c4cc(F)c5nc(C)n(C(C)C)c5c4)n3)nc2)CC1
RESULT: 105.3

QUERY: Look up Freeze-Thaw Accuracy [%]: CNC(=O)c1cc(Oc2ccc(NC(=O)Nc3ccc(Cl)c(C(F)(F)F)c3)cc2)ccn1
RESULT: 98.7

QUERY: Fill in the blank: the reported Freeze-Thaw Accuracy [%] of Cn1cnc2c(F)c(Nc3ccc(Br)cc3F)c(C(=O)NOCCO)cc21 is ____.
RESULT: 105.2

----------
assay-notes: Short-term stability in spiked pooled human plasma (bench-top, 4 °C, 56 °C)
conditions-used: validation standard LLOV
Let's look at some compounds and their measured Short-time stability (24h, 4°C, without daylight) Accuracy [%].
// units = %; emit number, no label

// worked examples, Short-time stability (24h, 4°C, without daylight) Accuracy [%] included
# compound, assay-value
data = [
    ("Cn1cnc2c(F)c(Nc3ccc(Br)cc3F)c(C(=O)NOCCO)cc21", 117.1),
    ("CC1(C)CCC(CN2CCN(c3ccc(C(=O)NS(=O)(=O)c4ccc(NCC5CCOCC5)c([N+](=O)[O-])c4)c(Oc4cnc5[nH]ccc5c4)c3)CC2)=C(c2ccc(Cl)cc2)C1", 88.8),
]

QUERY: Given Cc1nc(Nc2ncc(C(=O)Nc3c(C)cccc3Cl)s2)cc(N2CCN(CCO)CC2)n1 , state its recorded Short-time stability (24h, 4°C, without daylight) Accuracy [%].
RESULT: 124.4

QUERY: Which Short-time stability (24h, 4°C, without daylight) Accuracy [%] value belongs to CCC1=C[C@@H]2CN(C1)Cc1c([nH]c3ccccc13)[C@@](C(=O)OC)(c1cc3c(cc1OC)N(C)[C@H]1[C@@](O)(C(=O)OC)[C@H](OC(C)=O)[C@]4(CC)C=CCN5CC[C@]31[C@@H]54)C2 ?
RESULT: 96.3

QUERY: Dear colleague, I am looking for the recorded Short-time stability (24h, 4°C, without daylight) Accuracy [%] of the following compound: CN(C)C(=O)c1cc2cnc(Nc3ccc(N4CCNCC4)cn3)nc2n1C1CCCC1
RESULT: 87.3

QUERY: I'd like to know its Short-time stability (24h, 4°C, without daylight) Accuracy [%]. The compound in question is C[C@H]1Oc2cc(cnc2N)-c2c(nn(C)c2C#N)CN(C)C(=O)c2ccc(F)cc21
RESULT: 98.8

QUERY: Look up Short-time stability (24h, 4°C, without daylight) Accuracy [%]: CCN(CC)CCNC(=O)c1c(C)[nH]c(/C=C2\C(=O)Nc3ccc(F)cc32)c1C
RESULT: 111.2

QUERY: Query: Short-time stability (24h, 4°C, without daylight) Accuracy [%]; subject: Nc1cccc2c1C(=O)N(C1CCC(=O)NC1=O)C2=O (centres unmarked) [Pomalidomide]
RESULT: 92.5

QUERY: Please look up its Short-time stability (24h, 4°C, without daylight) Accuracy [%]: CCN1CCN(Cc2ccc(Nc3ncc(F)c(-c4cc(F)c5nc(C)n(C(C)C)c5c4)n3)nc2)CC1
RESULT: 93.7

QUERY: Looking for the measured Short-time stability (24h, 4°C, without daylight) Accuracy [%] of CS(=O)(=O)CCNCc1ccc(-c2ccc3ncnc(Nc4ccc(OCc5cccc(F)c5)c(Cl)c4)c3c2)o1 , can you help?
RESULT: 92.5

QUERY: Can you look up the measured Short-time stability (24h, 4°C, without daylight) Accuracy [%] of N#CC[C@H](C1CCCC1)n1cc(-c2ncnc3[nH]ccc23)cn1 for me?
RESULT: 102.2

----------
assay-notes: Long-term stability in spiked pooled human plasma
conditions-used: validation standard MOV
measured-endpoint: Long-term stability, 1 month, -80°C Accuracy [%] (%)
Please state the figure in %; there is no need to write the unit.

Solved cases below.
# compound, assay-value
records = [
    ("C[C@H]1Oc2cc(cnc2N)-c2c(nn(C)c2C#N)CN(C)C(=O)c2ccc(F)cc21", 87.8),
    ("O=C(Nc1cnn2ccc(N3CCC[C@@H]3c3cc(F)ccc3F)nc12)N1CC[C@H](O)C1", 97.2),
    ("O=C1CN2Cc3c(ccc(Cl)c3Cl)N=C2N1 [Anagrelide]", 97.0),
]

Then this compound:
QUERY: Entry under review: Cc1ccc(Nc2nccc(N(C)c3ccc4c(C)n(C)nc4c3)n2)cc1S(N)(=O)=O . Reported Long-term stability, 1 month, -80°C Accuracy [%]?
RESULT: 95.8

----------
assay-notes: Long-term stability in spiked pooled human plasma
conditions-used: validation standard MOV
measured-endpoint: Long-term stability, 1 month, -80°C Accuracy [%] (%)
Write the value in % as a bare number.

Example entries and their recorded answers appear below.
# molecule, readout-units, assay-value
rows = [
    ("CN(C)C(=O)c1cc2cnc(Nc3ccc(N4CCNCC4)cn3)nc2n1C1CCCC1 [Ribociclib]", "%", 101.3),
    ("CNC(=O)c1cc(Oc2ccc(NC(=O)Nc3ccc(Cl)c(C(F)(F)F)c3)cc2)ccn1 [Sorafenib]", "%", 108.3),
    ("CCOc1cc2ncc(C#N)c(Nc3ccc(OCc4ccccn4)c(Cl)c3)c2cc1NC(=O)/C=C/CN(C)C [Neratinib]", "%", 84.6),
    ("CNC(=O)c1ccc(N2C(=S)N(c3cnc(C#N)c(C(F)(F)F)c3)C(=O)C23CCC3)cc1F [Apalutamide]", "%", 91.1),
    ("CC(C)(C)c1nc(-c2cccc(NS(=O)(=O)c3c(F)cccc3F)c2F)c(-c2ccnc(N)n2)s1 [Dabrafenib]", "%", 92.3),
    ("C[C@]12CC[C@H](O)CC1=CC[C@@H]1[C@@H]2CC[C@]2(C)C(c3cccnc3)=CC[C@@H]12 [Abiraterone]", "%", 93.5),
]

QUERY: What measured Long-term stability, 1 month, -80°C Accuracy [%] goes with Cc1[nH]c2ccccc2c1CCNCc1ccc(/C=C/C(=O)NO)cc1 [Panobinostat] ?
RESULT: 84.1

QUERY: Please look up its Long-term stability, 1 month, -80°C Accuracy [%]: Cc1ccc(C(=O)Nc2ccc(CN3CCN(C)CC3)c(C(F)(F)F)c2)cc1C#Cc1cnc2cccnn12 [Ponatinib]
RESULT: 93.7

QUERY: Look up Long-term stability, 1 month, -80°C Accuracy [%] for this molecule: CS(=O)(=O)CCNCc1ccc(-c2ccc3ncnc(Nc4ccc(OCc5cccc(F)c5)c(Cl)c4)c3c2)o1 [Lapatinib]
RESULT: 97.6

QUERY: Sample O=C(c1cc(Cc2n[nH]c(=O)c3ccccc23)ccc1F)N1CCN(C(=O)C2CC2)CC1 [Olaparib] — what was its Long-term stability, 1 month, -80°C Accuracy [%]?
RESULT: 92.9

QUERY: Could you share which Long-term stability, 1 month, -80°C Accuracy [%] value was measured for CCN1CCN(Cc2ccc(Nc3ncc(F)c(-c4cc(F)c5nc(C)n(C(C)C)c5c4)n3)nc2)CC1 [Abemaciclib] ?
RESULT: 96.2

QUERY: Quick one: Long-term stability, 1 month, -80°C Accuracy [%] for CN(C)C/C=C/C(=O)Nc1cc2c(Nc3ccc(F)c(Cl)c3)ncnc2cc1O[C@H]1CCOC1 [Afatinib] ?
RESULT: 93.1

QUERY: Given the entry CS(=O)(=O)c1ccc(C(=O)Nc2ccc(Cl)c(-c3ccccn3)c2)c(Cl)c1 [Vismodegib] , report its measured Long-term stability, 1 month, -80°C Accuracy [%].
RESULT: 97.9

QUERY: Can you look up the measured Long-term stability, 1 month, -80°C Accuracy [%] of CC(=O)Nc1cccc(-n2c(=O)n(C3CC3)c(=O)c3c(Nc4ccc(I)cc4F)n(C)c(=O)c(C)c32)c1 [Trametinib] for me?
RESULT: 107.1

QUERY: GET /values?readout=Long-term stability, 1 month, -80°C Accuracy [%]&item= Cc1nc(Nc2ncc(C(=O)Nc3c(C)cccc3Cl)s2)cc(N2CCN(CCO)CC2)n1 [Dasatinib]
RESULT: 91.3

QUERY: Dear colleague, I am looking for the recorded Long-term stability, 1 month, -80°C Accuracy [%] of the following molecule: Cc1ccc(NC(=O)c2ccc(CN3CCN(C)CC3)cc2)cc1Nc1nccc(-c2cccnc2)n1 [Imatinib]
RESULT: 84.4

Source: paper PMC8699473
